Where these numbers come from: the supplement of paper PMC10567573

B1: DLC1 (parent)
chain: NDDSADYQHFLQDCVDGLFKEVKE

variants of: B1; experiment: protein stability index of a GFP-peptide fusion (GPS, HEK-293T) (PSI 1-6); higher = more stable; details: c terminus: a fixed tail appended;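 note: lentivirally expressed fusions sorted by FACS into six bins by GFP to DsRed ratio, PSI derived from sequencing read proportions per bin multiplied by bin number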
Each entry below lists one item and its recorded protein stability index value.
Simply state the number, no unit and no words.

Some variants with recorded protein stability index:
What does the data say about its protein stability index? Entry: K23S
3.09

What does the data say about its protein stability index? Entry: Q12S
3.3

What does the data say about its protein stability index? Entry: F10C
2.66

New cases:
What does the data say about its protein stability index? Entry: K20T
4
